System: OVCAR-5 ovarian
PROCEDURE_SUMMARY: NCI tumour cell line growth inhibition, 48 h
METRIC: TGI

{"MOLECULE": "CSc1nc(NC2CC2)c2c(n1)Sc1nc3ccccc3n1N=C2", "STUDY_TARGET": "OVCAR-5 ovarian", "TGI": "> 100 µM"}
{"MOLECULE": "COc1cc(C=C2C(=O)OC(C)(C)OC2=O)cc(OC)c1OC", "STUDY_TARGET": "OVCAR-5 ovarian", "TGI": "> 100 µM"}
{"MOLECULE": "CC(C)(C)NC(=O)C12C3C4C1C1C2C3C41I (stereo not given)", "STUDY_TARGET": "OVCAR-5 ovarian", "TGI": "> 100 µM"}
{"MOLECULE": "Cc1c(Br)cccc1NC(=O)c1sc2nc3c(cc2c1N)CN(Cc1ccccc1)CC3", "STUDY_TARGET": "OVCAR-5 ovarian", "TGI": "> 50 µM"}
{"MOLECULE": "N.N.NCCCCN.O=C([O-])CCl.O=C([O-])CCl.O=C([O-])CCl.O=C([O-])CCl.[Pt+4].[Pt+4]", "STUDY_TARGET": "OVCAR-5 ovarian", "TGI": "> 50 µM"}
{"MOLECULE": "O=C(O)CC(Cc1ccccc1)C(=O)O (stereo not given)", "STUDY_TARGET": "OVCAR-5 ovarian", "TGI": "> 100 µM"}

Param readout = TGI; param system = OVCAR-5 ovarian; param query = "O=C(O)C(=O)/C=C\c1ccc(Cl)cc1" ; response: value
> 100 µM

----------
Each record here notes measured TGI.
System: CCRF-CEM leukemia
PROCEDURE_SUMMARY: NCI tumour cell line growth inhibition, 48 h

Before answering, review these 8 worked examples.
{"MOLECULE": "CCOC(=O)C(NC(=O)Nc1ccccc1)(Nc1cccc(Cl)c1)C(F)(F)F (centres undefined)", "TGI": "> 100 µM"}
{"MOLECULE": "COC(=O)CC[C@@H](NC(=O)C(C)NC(=O)COC1C(O)C(COC(=O)CCCCCCCCCCNC(=O)c2ccc([N+](=O)[O-])c3[nH]c4cc(Br)ccc4c(=O)c23)OC(OCc2ccccc2)C1NC(C)=O)C(N)=O (some centres undefined)", "TGI": "> 100 µM"}
{"MOLECULE": "COC(=O)c1ccc2c(c1)[n+](=O)c(C(C)=O)c(C(F)(F)F)n2[O-]", "TGI": "> 100 µM"}
{"MOLECULE": "CCCCC(=O)Nc1ccc2cc(C(=O)OC)c(=O)[nH]c2n1", "TGI": "> 100 µM"}
{"MOLECULE": "COC1=CC(=O)c2c(O)c3c(c(O)c2C1=O)CC(C)(O)OC3 (centres undefined)", "TGI": "17.4 µM"}
{"MOLECULE": "C=CCCCN1C(=O)C2C3c4ccccc4C(C=O)(c4ccccc43)C2C1=O (centres undefined)", "TGI": "17.6 µM"}
{"MOLECULE": "COc1ccc(-n2cc(-c3ccc(Cl)cc3)[nH]c2=S)cc1Cl", "TGI": "> 100 µM"}
{"MOLECULE": "COC(=O)C1=C(SC)SC2(C(=O)OC)C3C=C(C)C4C(N13)C42C(=O)OC (centres undefined)", "TGI": "> 100 µM"}

For the next question, use this molecule.
Form field: reported TGI of O=C1OS2(OC(=O)c3cccc4cccc2c34)c2ccccc21 (centres undefined)
> 100 µM
